target: GluN1a/GluN2C NMDAR (Rattus norvegicus, UniProt P35439+Q00961)
Sequence (Q00961 20-1237, other chains not shown): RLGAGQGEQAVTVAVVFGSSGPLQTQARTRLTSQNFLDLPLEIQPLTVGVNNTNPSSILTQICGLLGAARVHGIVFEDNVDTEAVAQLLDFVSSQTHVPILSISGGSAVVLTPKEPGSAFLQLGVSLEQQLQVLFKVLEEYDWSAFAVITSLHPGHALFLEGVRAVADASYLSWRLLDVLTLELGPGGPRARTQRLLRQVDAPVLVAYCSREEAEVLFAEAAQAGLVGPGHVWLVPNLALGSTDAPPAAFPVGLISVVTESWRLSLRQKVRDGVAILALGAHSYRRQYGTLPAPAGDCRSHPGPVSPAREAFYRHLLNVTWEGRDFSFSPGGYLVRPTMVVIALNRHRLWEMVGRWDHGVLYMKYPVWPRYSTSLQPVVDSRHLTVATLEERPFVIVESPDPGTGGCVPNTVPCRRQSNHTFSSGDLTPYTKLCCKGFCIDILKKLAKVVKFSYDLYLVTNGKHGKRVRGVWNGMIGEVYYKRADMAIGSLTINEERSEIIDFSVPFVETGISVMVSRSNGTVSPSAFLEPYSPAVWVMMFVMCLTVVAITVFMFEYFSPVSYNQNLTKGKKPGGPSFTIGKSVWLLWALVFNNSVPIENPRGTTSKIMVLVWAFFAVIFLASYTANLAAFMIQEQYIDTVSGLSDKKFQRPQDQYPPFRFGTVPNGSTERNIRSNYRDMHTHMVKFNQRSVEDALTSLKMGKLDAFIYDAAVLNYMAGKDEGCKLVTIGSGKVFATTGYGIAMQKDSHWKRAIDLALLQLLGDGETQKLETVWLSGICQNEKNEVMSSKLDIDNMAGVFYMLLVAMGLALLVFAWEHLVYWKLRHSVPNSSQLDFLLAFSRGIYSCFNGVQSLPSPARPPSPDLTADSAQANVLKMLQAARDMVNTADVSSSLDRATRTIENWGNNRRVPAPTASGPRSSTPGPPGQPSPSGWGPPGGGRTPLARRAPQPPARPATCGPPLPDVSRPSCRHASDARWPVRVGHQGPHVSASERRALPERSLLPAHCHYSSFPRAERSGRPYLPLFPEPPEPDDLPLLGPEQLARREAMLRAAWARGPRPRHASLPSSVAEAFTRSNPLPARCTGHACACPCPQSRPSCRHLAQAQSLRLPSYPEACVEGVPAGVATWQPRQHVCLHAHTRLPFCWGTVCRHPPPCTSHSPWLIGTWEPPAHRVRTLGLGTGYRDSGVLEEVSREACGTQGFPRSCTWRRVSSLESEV
# IC50 per entry

O=C(O)[C@H]1NCCN(C(=O)c2ccc(CCc3ccccc3)cc2)[C@H]1C(=O)O > 100 µM
O=C(O)c1ccc(-c2ccc(C(=O)N3CCN[C@H](C(=O)O)[C@@H]3C(=O)O)cc2)cc1 > 100 µM

Switching to the query record.
*Q* State its IC50 for this compound: O=C(O)c1ccc2cc(C(=O)N3CCN[C@H](C(=O)O)[C@@H]3C(=O)O)ccc2c1
*A* > 100 µM

---

target: GluN1a/GluN2D NMDAR (Rattus norvegicus, UniProt P35439+Q62645); format: cell-based
Sequence (Q62645 28-1323, other chains not shown): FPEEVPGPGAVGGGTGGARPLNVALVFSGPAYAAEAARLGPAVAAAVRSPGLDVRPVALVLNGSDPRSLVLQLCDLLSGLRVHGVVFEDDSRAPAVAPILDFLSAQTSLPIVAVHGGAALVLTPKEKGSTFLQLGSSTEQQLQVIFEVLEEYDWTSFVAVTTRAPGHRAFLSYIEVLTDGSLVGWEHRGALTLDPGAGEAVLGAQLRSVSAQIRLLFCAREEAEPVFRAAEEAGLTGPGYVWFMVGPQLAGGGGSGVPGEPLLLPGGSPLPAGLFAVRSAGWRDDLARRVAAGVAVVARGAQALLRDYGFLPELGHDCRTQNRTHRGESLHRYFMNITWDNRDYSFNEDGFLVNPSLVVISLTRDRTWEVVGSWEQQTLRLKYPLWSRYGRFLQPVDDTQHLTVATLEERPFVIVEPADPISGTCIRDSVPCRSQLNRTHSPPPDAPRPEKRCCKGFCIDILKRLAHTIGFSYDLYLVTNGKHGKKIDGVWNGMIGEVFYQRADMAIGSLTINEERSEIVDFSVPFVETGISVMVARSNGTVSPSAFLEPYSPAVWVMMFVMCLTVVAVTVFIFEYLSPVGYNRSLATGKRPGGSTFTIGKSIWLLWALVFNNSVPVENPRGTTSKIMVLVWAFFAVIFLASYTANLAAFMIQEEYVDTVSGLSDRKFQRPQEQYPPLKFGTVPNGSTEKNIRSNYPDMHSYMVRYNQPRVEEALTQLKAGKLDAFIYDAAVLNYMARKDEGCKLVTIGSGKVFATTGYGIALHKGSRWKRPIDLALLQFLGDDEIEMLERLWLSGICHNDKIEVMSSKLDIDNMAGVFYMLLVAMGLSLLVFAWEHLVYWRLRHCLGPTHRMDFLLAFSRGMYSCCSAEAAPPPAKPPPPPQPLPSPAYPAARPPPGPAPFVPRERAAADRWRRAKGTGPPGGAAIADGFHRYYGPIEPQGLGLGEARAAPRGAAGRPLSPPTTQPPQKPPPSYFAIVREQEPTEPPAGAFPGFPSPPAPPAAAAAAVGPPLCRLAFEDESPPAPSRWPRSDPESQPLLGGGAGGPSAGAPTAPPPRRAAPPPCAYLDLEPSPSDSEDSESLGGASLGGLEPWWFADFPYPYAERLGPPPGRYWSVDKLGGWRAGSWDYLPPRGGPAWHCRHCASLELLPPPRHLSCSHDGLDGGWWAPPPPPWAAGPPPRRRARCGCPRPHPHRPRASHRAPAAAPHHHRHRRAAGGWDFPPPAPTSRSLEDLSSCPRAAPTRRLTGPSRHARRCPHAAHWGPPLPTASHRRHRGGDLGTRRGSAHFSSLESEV
pIC50: −log10 of the molar value.
# pIC50 per entry

*Q* State its pIC50 for this compound: O=C(O)c1ccc2cc(C(=O)N3CCN[C@H](C(=O)O)[C@@H]3C(=O)O)ccc2c1 [Compound 19]
*A* < 4.00

*Q* State its pIC50 for this compound: O=C(O)[C@H]1NCCN(C(=O)c2ccc(CCc3ccccc3)cc2)[C@H]1C(=O)O [Compound 21]
*A* < 4.00

Value source: paper PMC3269097
